Give measured Emax for each item. Keep answers brief.
study target: abc isoform of human TMEM16A channel expressed in CHO cells (Homo sapiens, UniProt Q5XXA6, DEL476-501)
Construct: expressed in transfected cells; host or cells: CHO cells, doxycycline-inducible expression under Blasticidin/Zeocin selection
Sequence (Q5XXA6 with tags, fused parts or gaps isoform Q5XXA6-5 DEL539-564): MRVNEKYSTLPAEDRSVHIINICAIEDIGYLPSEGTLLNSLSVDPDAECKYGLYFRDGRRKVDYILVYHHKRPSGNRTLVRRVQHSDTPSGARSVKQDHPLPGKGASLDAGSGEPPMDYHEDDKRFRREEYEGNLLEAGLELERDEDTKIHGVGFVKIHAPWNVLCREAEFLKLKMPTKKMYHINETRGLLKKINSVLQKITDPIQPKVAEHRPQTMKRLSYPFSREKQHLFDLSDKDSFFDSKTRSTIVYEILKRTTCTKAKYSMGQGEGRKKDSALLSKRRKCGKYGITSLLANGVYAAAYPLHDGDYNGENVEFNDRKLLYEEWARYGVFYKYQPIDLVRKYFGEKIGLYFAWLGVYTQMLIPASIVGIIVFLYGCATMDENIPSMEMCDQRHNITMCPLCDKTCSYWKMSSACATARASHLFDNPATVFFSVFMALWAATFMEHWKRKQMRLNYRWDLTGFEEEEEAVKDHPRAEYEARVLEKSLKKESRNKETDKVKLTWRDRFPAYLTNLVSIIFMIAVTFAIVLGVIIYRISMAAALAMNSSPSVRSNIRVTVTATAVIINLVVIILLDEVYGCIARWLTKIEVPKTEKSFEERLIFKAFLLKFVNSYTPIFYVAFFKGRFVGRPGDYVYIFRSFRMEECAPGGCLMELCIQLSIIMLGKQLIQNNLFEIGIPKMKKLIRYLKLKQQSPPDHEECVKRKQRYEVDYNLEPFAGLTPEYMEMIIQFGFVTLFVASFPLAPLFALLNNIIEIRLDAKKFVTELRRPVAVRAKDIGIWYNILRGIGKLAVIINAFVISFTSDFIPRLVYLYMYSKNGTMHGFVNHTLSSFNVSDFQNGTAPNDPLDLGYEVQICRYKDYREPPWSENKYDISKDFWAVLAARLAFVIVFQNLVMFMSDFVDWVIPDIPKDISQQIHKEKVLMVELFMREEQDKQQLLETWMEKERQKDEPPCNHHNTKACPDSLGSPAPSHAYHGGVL
test protocol: Automated patch clamping (QPatch) assay to measure TMEM16A activity in whole-cell
Assay type: cell-based
assay context: CHO, maximum current at highest dose relative to reference potentiator at maximal concentration (upper limit) and vehicle (lower limit); read-out: TMEM16A QPATCH assay EC50 V3 Assay Window (% TMEM16A max activation)
Structures can show the parent of a compound that is named as a salt.
# number only, unit % dropped from output

query: Read off the recorded Emax for CCC(CC)NC(=O)c1cc(-c2cccc(-c3ncc(C(=O)NCC4CCCCO4)o3)c2)[nH]n1 (stereo not shown)
result: 39

query: Query Emax for CCC(CC)NC(=O)c1cc(-c2cccc(-c3ncc(C(=O)N[C@@H](C)c4ccccc4)o3)c2)[nH]n1
result: 92

query: In one line, give reported Emax of the entry CCC(CC)NC(=O)c1cnc(-c2cccc(-c3cc(C(=O)NC(CC)C(C)C)n[nH]3)c2)o1 (stereo not shown) .
result: 94

query: Look up and report measured Emax for this entry: CCC(CC)NC(=O)c1cnc(-c2cccc(-c3cc(C(=O)N4CCC(C(=O)OC(C)(C)C)C4)n[nH]3)c2)o1 (stereo not shown) [Example 3.62, Trifluoroacetate]
result: 70

query: Indicate its recorded Emax; the compound in question is CCOC(=O)[C@@H](NC(=O)c1cnc(-c2cccc(-c3cc(C(=O)NC(CC)CC)n[nH]3)c2)o1)C(C)C
result: 90

query: Supply Emax value. Item: CCC(CC)NC(=O)c1cnc(-c2cccc(-c3cc(C(=O)N[C@@H](C)CC)n[nH]3)c2)o1
result: 76

query: Please report the measured Emax for CCC(CC)NC(=O)c1cnc(-c2cccc(-c3cc(C(=O)N[C@@H](C)c4ccccc4)n[nH]3)c2)o1
result: 100

The values you see were collected from patent US20220306617A1.
